Biological target: PAD4 (Homo sapiens, UniProt Q9UM07)
Construct: made in house
Sequence (Q9UM07 whole entry): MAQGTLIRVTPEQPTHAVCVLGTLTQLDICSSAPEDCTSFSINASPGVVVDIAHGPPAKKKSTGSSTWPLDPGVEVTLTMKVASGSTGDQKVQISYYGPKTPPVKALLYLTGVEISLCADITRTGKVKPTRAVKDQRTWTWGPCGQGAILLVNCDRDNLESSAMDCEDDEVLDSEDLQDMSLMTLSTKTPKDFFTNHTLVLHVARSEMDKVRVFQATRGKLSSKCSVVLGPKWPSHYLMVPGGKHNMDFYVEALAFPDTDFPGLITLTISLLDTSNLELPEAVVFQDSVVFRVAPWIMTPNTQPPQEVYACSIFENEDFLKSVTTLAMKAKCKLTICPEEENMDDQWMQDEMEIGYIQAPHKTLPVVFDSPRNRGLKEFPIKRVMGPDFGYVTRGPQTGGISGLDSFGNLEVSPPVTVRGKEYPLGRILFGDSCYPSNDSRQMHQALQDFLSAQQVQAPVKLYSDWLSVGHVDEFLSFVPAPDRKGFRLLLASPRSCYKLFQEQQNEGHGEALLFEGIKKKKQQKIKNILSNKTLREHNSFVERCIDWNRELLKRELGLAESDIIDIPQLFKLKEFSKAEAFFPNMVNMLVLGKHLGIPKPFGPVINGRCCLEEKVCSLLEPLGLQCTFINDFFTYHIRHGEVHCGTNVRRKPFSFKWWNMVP
Experiment: Inactivation kinetics, PAD4
Type: biochemical
Settings: a: single kobs determined; b: from a linear fit
readoutLabel: kinact/KI (M⁻¹ s⁻¹)
Answers are plain numbers, in M⁻¹ s⁻¹.

Some compounds with recorded kinact/KI:
smilesRepr: CC(C)n1c([C@H](CCCNC(=N)CCl)NC(=O)c2ccc(-c3ccccc3)cc2)nc2ccccc21
kinact/KI [M⁻¹ s⁻¹]: 15.8

smilesRepr: CCN1Cc2cccc(C(=O)N[C@@H](CCCNC(=N)CF)c3nc4c(OC)cccc4[nH]3)c2C1=O
kinact/KI [M⁻¹ s⁻¹]: 12.5

smilesRepr: CCN1Cc2cccc(C(=O)N[C@@H](CCCNC(=N)CF)c3nc4ccccc4[nH]3)c2C1=O
kinact/KI [M⁻¹ s⁻¹]: 248

smilesRepr: CCn1c([C@H](CCCNC(=N)CF)NC(=O)c2ccccc2C(=O)OC(C)(C)C)nc2ccccc21
kinact/KI [M⁻¹ s⁻¹]: 7.33

// switching to the query compound
Q) Given the compound `N=C(CCl)NCCC[C@H](NC(=O)c1ccc(-c2ccc(F)cc2)cc1)c1nc2ccccc2[nH]1` , write its reported kinact/KI.
A) 280
